Test system: hepG2 cells
Experiment: CCK8 cell viability assay, hepG2
Format: cell-based, human
Conditions: 20 μM, hepG2, CCK8, control taken as 100%
Procedure: This study aimed to assess the anti-proliferative activity of dolutegravir-1,2,3-triazole derivatives on hepatocellular carcinoma cell lines, Huh7 and hepG2. A comprehensive CCK8 assay was employed to evaluate the impact of these compounds on cell viability, with cells treated at a concentration of 20 μM for 48 h. […] CCK8 assay was used to measure cell viability. […] Absorbance was measured using a Microplate spectrophotometer (Thermo, Waltham, MA, USA) at 450 nm. […]
ENDPOINT_NAME: Cell Viability (100%), 20 μM, 48 h, hepG2
Just the number in %, nothing appended.

Completed entries (count: 2):
{"COMPOUND": "COc1c2n(cc(C(=O)Nc3cccc(-c4cn(-c5ccccc5OC(F)(F)F)nn4)c3)c1=O)CC1OCCC(C)N1C2=O (stereo not drawn) [Compound 5i]", "U": "%", "ENDPOINT_RESULT": 24.84}
{"COMPOUND": "COc1c2n(cc(C(=O)Nc3cccc(-c4cn(Cc5ccccc5F)nn4)c3)c1=O)CC1OCCC(C)N1C2=O (stereo not drawn) [Compound 6f]", "U": "%", "ENDPOINT_RESULT": 63.23}

Pending compound:
Query: Param readout = Cell Viability (100%), 20 μM, 48 h, hepG2; param system = hepG2 cells; param query = COc1ccccc1-n1cc(-c2cccc(NC(=O)c3cn4c(c(OC)c3=O)C(=O)N3C(C)CCOC3C4)c2)nn1 (stereo not drawn) [Compound 5t] ; response: value
Result: 41.93
